# study-system: recombinant human KLK5 (human) (UniProt Q9Y337)
# Sequence (Q9Y337 67-293): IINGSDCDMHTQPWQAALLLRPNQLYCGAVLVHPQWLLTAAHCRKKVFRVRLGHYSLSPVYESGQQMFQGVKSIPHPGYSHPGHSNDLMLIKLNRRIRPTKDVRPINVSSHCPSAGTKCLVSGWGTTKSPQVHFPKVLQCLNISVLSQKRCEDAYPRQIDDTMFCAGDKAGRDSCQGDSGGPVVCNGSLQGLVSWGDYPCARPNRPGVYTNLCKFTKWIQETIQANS
# test-summary: pro-KLK7 LC/MS assay, 5 nM KLK5, 15 nM pro-KLK7, nM
measurement-type: IC50 (nM)
Answer with a number only, understood to be in nM.

[
  {
    "binder": "9F2 (antibody, V domains shown) VH: QSVKESEGGLFKPTDNLTLTCTVSGFSLSSYGVSWVRQAPGNGLEYIGFIGSGGSPYYASWAKSRSTITRNTNLNTVTLKMTSLTAADTATYFCARDDVGGGKSLDIWGPGTLVTVSS VL: NIVMTQTPASVEVAVGGTVIIKCQASQSISNYLSWYHQKSGQRPRLLIYSASTLASGVPSRFKGSGSGTQFTLTISDLECADAATYYCHQDYTSNSVDNTFGGGTEVVVK",
    "IC50, nM": 1.26
  }
]

Next binder, please.
Requested read-out: IC50. Entry: 8B7 (antibody, V domains shown) VH: QSVKESEGGLFKPTDNLTLTCTVSGFSLSNYGVTWVRQAPGNGLEYIGFIGSSGSAYYASWAKSRSTITRNTNLNTVTLKMTSLTAADTATYFCARDDVGGGKSLDIWGPGTLVTVSS VL: NIVMTQTPASVEVAVGGTVTIKCQASQSIGSYLSWYQQKPGQPPKLLIYDASNLASGVPSRFKGSGSGTQFTLSISDLECADAATYYCHQDYTSNNVDNTFGGGTEVVIK
1.29
